Measured values drawn from paper PMC12102759 for this set.

B1: RNF115 peptide 69-84 (E3 ubiquitin-protein ligase RNF115), 16-mer library wild type / MDM2 SWIB (MDM2 SWIB/MDM2 domain, residues 17-125) (parent)
chain 1: THFAELWGHLDHTMFF
chain 2: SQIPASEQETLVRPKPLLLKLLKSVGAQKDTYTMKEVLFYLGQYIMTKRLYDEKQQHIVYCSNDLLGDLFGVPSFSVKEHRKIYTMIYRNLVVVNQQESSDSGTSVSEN

variants of: B1; assay: proteomic peptide phage display deep mutational scan (ProP-PD DMS): M13 P8 16-mer library selected against immobilised GST-tagged bait for four days (rounds), NGS of the eluted pools per day and pseudo-replica; conditions: with MDM2 SWIB (MDM2 SWIB/MDM2 domain, residues 17-125); bait immobilised on MaxiSorp plates (10 µg), library pre-cleared on GST, 2 h binding at 4 °C, five washes; one round per day, days 1-4; value from days 2 and 3; keep out of graded; scale: average fractional NGS count over selection days 2 and 3
MEASURED_ATTRIBUTE: screen value
Output spec: single numeric token, no unit.

VAR | screen value
chain 1 W7E | 0
chain 1 L10E | 0
chain 1 T1R | 1.6e-05
chain 1 H9P | 0

**Q:** Item chain 1 L10P has what recorded screen value?
**A:** 0

**Q:** Using the record for chain 1 L10W , report its screen value.
**A:** 0.000123

**Q:** # lookup: screen value of chain 1 M14I
**A:** 5.94e-05

**Q:** Reported screen value, variant chain 1 E5M : ____
**A:** 4.31e-05

**Q:** Could you tell me which screen value is on file for chain 1 E5L ?
**A:** 5.37e-05

**Q:** Which screen value reading was recorded for the variant chain 1 F3M ?
**A:** 0

**Q:** Record request: screen value value, item chain 1 G8I
**A:** 3.49e-05

**Q:** What value of screen value has been reported for the following variant? chain 1 W7D
**A:** 0

**Q:** Please report the recorded screen value for chain 1 W7N .
**A:** 0

**Q:** What does the record list as screen value for chain 1 L10Y ?
**A:** 0

**Q:** Requested field: screen value. Item: chain 1 H12W
**A:** 3.9e-05

**Q:** Report screen value for chain 1 H12Y please.
**A:** 4.94e-05

**Q:** Item chain 1 T1K has what recorded screen value?
**A:** 5.86e-05

**Q:** Recorded screen value of chain 1 M14K , please.
**A:** 7.54e-05
